target: Potassium voltage-gated channel subfamily KQT member 2 (Rattus norvegicus) (UniProt O88943); assay: KCNQ2 potentiation in CHO cells – cell-based, FluxOR thallium flux, counter-screen for hERG block protector project, confirmation (AID 1942); conditions: FluxOR thallium flux fluorescence, at 10 µM, stronger effect = higher value;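 also: normalized value minus buffer-control mean plus three SD of buffer wells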
Sequence (O88943 whole entry, looked up): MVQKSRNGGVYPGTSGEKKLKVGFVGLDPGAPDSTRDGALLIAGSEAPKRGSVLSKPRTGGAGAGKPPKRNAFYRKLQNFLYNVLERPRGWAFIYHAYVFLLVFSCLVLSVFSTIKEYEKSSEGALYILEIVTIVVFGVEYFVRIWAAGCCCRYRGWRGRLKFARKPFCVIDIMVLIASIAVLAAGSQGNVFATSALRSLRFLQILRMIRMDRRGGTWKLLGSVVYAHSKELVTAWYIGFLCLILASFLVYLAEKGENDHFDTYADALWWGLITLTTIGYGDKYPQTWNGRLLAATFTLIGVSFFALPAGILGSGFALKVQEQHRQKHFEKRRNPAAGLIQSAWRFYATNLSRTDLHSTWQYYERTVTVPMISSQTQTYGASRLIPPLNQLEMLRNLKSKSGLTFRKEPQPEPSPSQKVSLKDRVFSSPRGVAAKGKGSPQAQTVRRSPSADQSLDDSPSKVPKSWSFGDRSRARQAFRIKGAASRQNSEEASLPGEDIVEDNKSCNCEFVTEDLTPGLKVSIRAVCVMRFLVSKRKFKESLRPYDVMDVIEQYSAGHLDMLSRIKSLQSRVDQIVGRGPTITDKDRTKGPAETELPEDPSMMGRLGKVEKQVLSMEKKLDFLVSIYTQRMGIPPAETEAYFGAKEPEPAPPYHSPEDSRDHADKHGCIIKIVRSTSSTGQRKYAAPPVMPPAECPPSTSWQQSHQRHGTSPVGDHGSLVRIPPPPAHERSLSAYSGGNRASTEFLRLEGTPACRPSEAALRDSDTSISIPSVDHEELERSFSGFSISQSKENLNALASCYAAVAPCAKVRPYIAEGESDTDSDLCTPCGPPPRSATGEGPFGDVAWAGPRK
Out of some 2,400 compounds screened, about 580 (24%) were called active. Only a sample is shown.
Reported activity change, less the hit threshold by item:

{"columns": ["Compound", "Endpoint Unit", "activity change, less the hit threshold"],
 "data": [
  ["Cc1ccc(C(=O)Sc2cccccc2=O)cc1", "%", 78.4],
  ["Cc1nc2ccc(C(=O)O)cc2[nH]1", "%", -10.4],
  ["O=C(CSc1ncnc2c1cnn2-c1ccc(Cl)cc1)NCc1ccc2c(c1)OCO2", "%", -11.1],
  ["Cc1cc(=O)oc2cc(OCC(=O)OCC(=O)NC(C)C)ccc12", "%", -16.8],
  ["CC(C)CC(=O)Nc1ccc2c3c(cccc13)CC2", "%", 44.7],
  ["Cc1ccc(-n2ncc3c(SCC(=O)NNC(=O)c4ccco4)ncnc32)cc1", "%", 4.4],
  ["CCOC(=O)N1CCN(C(=O)c2ccc(CN(c3ccc(C)c(C)c3)S(C)(=O)=O)cc2)CC1", "%", -15.6],
  ["CC(C)C(O)(C#CCN1CCCC1)c1ccccc1 (centres undefined)", "%", -11.8],
  ["Cc1ccc(S(=O)(=O)Nc2ccc(O)c3ccccc23)c(C)c1", "%", -27],
  ["CC(Sc1n[nH]c(=O)[nH]c1=O)C(=O)OCc1ccccc1 (centres undefined)", "%", -11.2],
  ["CSc1ccccc1C(=O)NCc1ccc(C)cc1", "%", -15.6],
  ["CCc1ccccc1NC(=O)CC1CS(=O)(=O)CC1CC(=O)Nc1ccccc1CC (centres undefined)", "%", -17],
  ["Cn1ncc2c(NNC(=O)Cc3ccccc3)ncnc21", "%", -14.4],
  ["CC(C)C(=O)Nc1cccc(C(=O)Nc2ccccc2C(=O)O)c1", "%", -17.8],
  ["CC(=O)c1ccc2c3c(cccc13)CC2", "%", -12.7],
  ["CC(=O)N1CCCc2cc(S(=O)(=O)NCc3ccc(C)cc3)ccc21", "%", -9.9],
  ["CC(C)(C)Cc1nnc(NC(=O)c2ccco2)s1", "%", -19.2],
  ["CCOC(=O)N1CCN(C(=O)c2ccc(C)c(S(=O)(=O)Nc3ccccc3)c2)CC1", "%", 4],
  ["CCCCCCc1cc2cc(-c3nnc(-c4ccccc4O)o3)c(=O)oc2cc1O", "%", -7],
  ["Cc1ccc(C(=O)N2CCN(c3ccccc3)CC2)cc1S(=O)(=O)N1CCCC1", "%", 1.9],
  ["CC1=CC(=O)C(C(C)C)=CC1=NC(=O)c1ccc(C)cc1", "%", -15.5],
  ["COc1ccc(-c2nn(-c3ccccc3)cc2C(=O)Nc2cccc(C(=O)O)c2)cc1[N+](=O)[O-]", "%", -18.7],
  ["O=C(O)c1ccccc1NC(=O)c1cc2ccccc2oc1=O", "%", -5.1],
  ["O=C(COc1ccc2ccccc2c1Br)Nc1cccnc1", "%", -22.1]
]}

----------
biological target: Potassium voltage-gated channel subfamily KQT member 2 (Rattus norvegicus) (UniProt O88943); experiment: KCNQ2 potentiation in CHO cells – cell-based, FluxOR thallium flux, counter-screen for hERG block protector project, confirmation (AID 1942); conditions: FluxOR thallium flux fluorescence, at 10 µM;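 also: normalized value minus buffer-control mean plus three SD of buffer wells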
Out of some 2,400 compounds screened, about 580 (24%) were called active.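 The calls were made as follows: active = activity change at or above the mean plus 3 SD of buffer wells without dofetilide, per plate; inactive = the rest.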 A selection follows.
Outcomes: active, inactive

{"columns": ["Molecule", "Class Assignment"],
 "data": [
  ["CCC1CCCCN1C(=S)NC(=O)c1cccc([N+](=O)[O-])c1 (stereo unspecified)", "active"],
  ["CC1CCN(C(=S)NC(=O)c2cccc([N+](=O)[O-])c2)CC1", "active"],
  ["O=C(O)c1cccc(C(=O)Nc2cccc(NC(=O)C3CCCO3)c2)c1 (stereo unspecified)", "inactive"],
  ["CCC1CCCCN1C(=S)NC(=O)c1cccs1 (stereo unspecified)", "inactive"],
  ["O=C(Nc1ccc(Oc2cccnc2)cc1)c1cccc([N+](=O)[O-])c1", "inactive"],
  ["CCOC(=O)c1c(C)cccc1OCC(N)=O", "inactive"],
  ["O=C(NC(=S)Nc1ccccc1N1CCCC1)c1ccc(-c2cccc([N+](=O)[O-])c2)o1", "inactive"],
  ["O=C(CN(C(=O)CNS(=O)(=O)c1ccc(F)cc1)c1cccc(F)c1)NCC1CCCO1 (stereo unspecified)", "inactive"],
  ["Nc1nnc(SCC(=O)OCc2ccc(F)cc2)s1", "inactive"],
  ["O=C(c1ccco1)N(c1ccccn1)c1ccccn1", "inactive"],
  ["CCC1CCCCN1C(=S)NC(=O)c1ccc([N+](=O)[O-])cc1 (stereo unspecified)", "active"]
]}
